target: human PD-1 (wild-type), expressed on cells (human, UniProt Q15116 25-288); assay: cell-based or functional assay
Sequence (Q15116 25-288 limits assumed): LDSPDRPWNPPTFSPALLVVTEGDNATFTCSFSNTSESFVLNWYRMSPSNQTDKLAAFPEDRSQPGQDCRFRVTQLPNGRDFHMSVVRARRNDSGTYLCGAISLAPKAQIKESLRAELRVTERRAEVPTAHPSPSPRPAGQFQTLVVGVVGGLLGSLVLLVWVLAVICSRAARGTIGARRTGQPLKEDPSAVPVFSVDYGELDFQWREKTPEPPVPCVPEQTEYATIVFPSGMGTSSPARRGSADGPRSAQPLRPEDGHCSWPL
value-type: Cell-cell contact assay (ng/mL)
Provide the reading as a plain figure in ng/mL.

{"binder": "HM242-B3 (antibody, human IgG1, V domains shown, also called humanized HM242, VH ver.B / VL ver.3) VH: QVQLVQSGPEVKKPGASVKVVCKASGYTFTSYYIQWVRQVPGQGLEWMGWIYPGDGTTKYNEKFKGKTTLTIDKSTRTAYMELRSLRSDDTAVYYCASYYGSYFDYWGQGTLVTVSS VL: DIQMTQSPSSLSASVGDRVTITCRASQDISNYLNWYQQKPGKAPKLLIYYTSKLHSGVPSRFSGSGSGTDYTLTISSLQPEDFATYYCQQSSTLPFTFGQGTKLEIK", "unit-string": "ng/mL", "Cell-cell contact assay": 20.8}
{"binder": "HM242-A3 (antibody, human IgG1, V domains shown, also called humanized HM242, VH ver.A / VL ver.3) VH: QVQLVQSGPELVKPGASVKVVCKASGYTFTSYYIQWVKQRPGQGLEWIGWIYPGDGTTKYNEKFKGKTTLTIDKSTRTAYMELRSLRSDDTAVYYCASYYGSYFDYWGQGTLVTVSS VL: DIQMTQSPSSLSASVGDRVTITCRASQDISNYLNWYQQKPGKAPKLLIYYTSKLHSGVPSRFSGSGSGTDYTLTISSLQPEDFATYYCQQSSTLPFTFGQGTKLEIK", "unit-string": "ng/mL", "Cell-cell contact assay": 18.8}
{"binder": "humanized HM242-D3-IgG1-K322A (antibody, V domains shown) VH: QVQLVQSGPEVKKPGASVKVVCKASGYTFTSYYIQWVRQVPGQGLEWMGWIYPGDGTTKYNEKFKGRVTMTIDTSTSTAYMELRSLRSDDTAVYYCASYYGSYFDYWGQGTLVTVSS VL: DIQMTQSPSSLSASVGDRVTITCRASQDISNYLNWYQQKPGKAPKLLIYYTSKLHSGVPSRFSGSGSGTDYTLTISSLQPEDFATYYCQQSSTLPFTFGQGTKLEIKR", "unit-string": "ng/mL", "Cell-cell contact assay": 31.5}
{"binder": "HM242-B1 (antibody, human IgG1, V domains shown, also called humanized HM242, VH ver.B / VL ver.1) VH: QVQLVQSGPEVKKPGASVKVVCKASGYTFTSYYIQWVRQVPGQGLEWMGWIYPGDGTTKYNEKFKGKTTLTIDKSTRTAYMELRSLRSDDTAVYYCASYYGSYFDYWGQGTLVTVSS VL: DIQMTQTTSSLSASVGDRVTITCRASQDISNYLNWYQQKPDGTVTLLIYYTSKLHSGVPSRFSGSGSGTDYTLTISSLEQKDFATYYCQQSSTLPFTFGQGTKLEIK", "unit-string": "ng/mL", "Cell-cell contact assay": 7.15}

Data point: HM242-C1 (antibody, human IgG1, V domains shown, also called humanized HM242, VH ver.C / VL ver.1) VH: QVQLVQSGPEVKKPGASVKVVCKASGYTFTSYYIQWVKQRPGQGLEWIGWIYPGDGTTKYNEKFKGRVTMTIDKSTRTAYMELRSLRSDDTAVYYCASYYGSYFDYWGQGTLVTVSS VL: DIQMTQTTSSLSASVGDRVTITCRASQDISNYLNWYQQKPDGTVTLLIYYTSKLHSGVPSRFSGSGSGTDYTLTISSLEQKDFATYYCQQSSTLPFTFGQGTKLEIK ; Cell-cell contact assay = 19

These data points were gathered from patent US20240317859A1.
